- assay.name: chemical genetic growth profiling, strain panel (AID 1159580);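 note: tested at 20 µM; growth read once vehicle control cultures reached saturation at 30 °C; lower values mean less growth of the strain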
- condition.details: S. cerevisiae deletion strains, growth OD, locus YDR318W, strain mcm21
Out of some 5,500 compounds screened, about 2,000 (36%) were called active. About 18% were inconclusive and are not listed. Cut-off read from the data, not from the text of the source: active = normalized growth mostly below about 0.91 (no sharp cut-off); inconclusive = no clear call, values can overlap the other calls; inactive = mostly above about 0.92. Some of the results follow.
Please reply with one of these outcomes: active, inactive

## Input Outcome logged for COC(=O)[C@@H]1OC(=O)[C@H]2O[C@@]23[C@@]1(C)CCC1[C@@]2(C)CCC(=O)C(C)(C)C2C[C@@H](OC(C)=O)[C@]13C (stereo not given in full) in this assay:
## Output inactive

## Input Outcome logged for `COc1ccc([C@H]2Oc3cc(OC)cc(OC)c3C[C@H]2O)cc1` in this assay:
## Output inactive

## Input Outcome logged for `COc1ccc2c(c1)O[C@H]1c3ccc(OC)cc3OC[C@@H]21` in this assay:
## Output active

## Input Outcome logged for `COc1c2ccoc2c(OC)c2oc(=O)ccc12` in this assay:
## Output inactive

***
## Input Outcome logged for CC1=CC2C(CC1=O)C(C)=CCC2C(C)C (stereo not given) in this assay:
## Output inactive
